Data provenance: the Immune Epitope Database (IEDB)

- assayed system: HLA-B*51:01
- assay notes: IEDB peptide-MHC binding, purified MHC/competitive/fluorescence; filed as Kd, often an IC50 or EC50 that approximates it; bounds were set here for any values at or beyond the usual limits of such assays
- test settings: source organism: Reston ebolavirus
endpoint: Kd

May I ask what Kd has been recorded for `TTDDSTSYY` ?
≥ 20 µM

---

- assayed system: HLA-B*18:01
- assay notes: IEDB peptide-MHC binding, purified MHC/direct/fluorescence; filed as Kd, often an IC50 or EC50 that approximates it; bounds were set here for any values at or beyond the usual limits of such assays
- test settings: source organism: Vibrio cholerae
endpoint: Kd

May I ask what Kd has been recorded for `IVKQGRDAL` ?
≥ 20 µM

---

- assayed system: HLA-A*02:11
- assay notes: IEDB peptide-MHC binding, purified MHC/competitive/fluorescence; filed as Kd, often an IC50 or EC50 that approximates it; bounds were set here for any values at or beyond the usual limits of such assays
- test settings: source organism: Cryptosporidium parvum Iowa II
pKd: −log10 of the molar value.
endpoint: pKd

May I ask what pKd has been recorded for `RIYKRSLKL` ?
≤ 4.70

---

- assayed system: HLA-B*27:03
- assay notes: IEDB peptide-MHC binding, purified MHC/direct/fluorescence; filed as Kd, often an IC50 or EC50 that approximates it; bounds were set here for any values at or beyond the usual limits of such assays
- test settings: source organism: Vibrio cholerae O139
endpoint: Kd

May I ask what Kd has been recorded for `EKDSNHNVL` ?
≥ 20 µM

---

- assayed system: HLA-A*68:02
- assay notes: IEDB peptide-MHC binding, purified MHC/competitive/radioactivity; filed as Kd, often an IC50 or EC50 that approximates it; bounds were set here for any values at or beyond the usual limits of such assays
- test settings: source organism: Dengue virus 1 Brazil/97-11/1997
endpoint: Kd (nM)
Give the value, in units of nM, as a plain number.

- sequence record: "GTAKLRWFV"
  assayed system: "HLA-A*68:02"
  Kd / nM: 30.7

May I ask what Kd has been recorded for `TSVGKLVHQV` ?
37.1

---

- assayed system: HLA-A*26:01
- assay notes: IEDB peptide-MHC binding, purified MHC/competitive/fluorescence; filed as Kd, often an IC50 or EC50 that approximates it; bounds were set here for any values at or beyond the usual limits of such assays
- test settings: source organism: Vibrio vulnificus
endpoint: Kd

May I ask what Kd has been recorded for `DEWECTRDD` ?
≥ 20 µM

---

- assayed system: HLA-B*15:01
- assay notes: IEDB peptide-MHC binding, purified MHC/competitive/fluorescence; filed as Kd, often an IC50 or EC50 that approximates it; bounds were set here for any values at or beyond the usual limits of such assays
- test settings: source organism: Human immunodeficiency virus 1
endpoint: Kd (nM)
Give the value, in units of nM, as a plain number.

May I ask what Kd has been recorded for `RSLYNTIATLY` ?
103

---

- assayed system: HLA-B*73:01
- assay notes: IEDB peptide-MHC binding, purified MHC/competitive/fluorescence; filed as Kd, often an IC50 or EC50 that approximates it; bounds were set here for any values at or beyond the usual limits of such assays
- test settings: source organism: Giardia lamblia ATCC 50803
endpoint: pKd
Note: pKd values are expressed as the negative base-10 logarithm of concentration in M.

May I ask what pKd has been recorded for `YPFHIFYPV` ?
5.88

---

- assayed system: HLA-A*68:02
- assay notes: IEDB peptide-MHC binding, purified MHC/competitive/radioactivity; filed as Kd, often an IC50 or EC50 that approximates it; bounds were set here for any values at or beyond the usual limits of such assays
- test settings: source organism: Trypanosoma cruzi
endpoint: pKd
Note: pKd values are expressed as the negative base-10 logarithm of concentration in M.

- sequence record: "LLGLWGFAAQ"
  pKd: 5.74

Turning to the following sequence.
May I ask what pKd has been recorded for `SLSHDFTLV` ?
6.22

---

- assayed system: HLA-B*35:01
- assay notes: IEDB peptide-MHC binding, purified MHC/competitive/fluorescence; bounds were set here for any values at or beyond the usual limits of such assays
- test settings: source organism: Ateles geoffroyi
endpoint: pIC50
Note: pIC50 values are expressed as the negative base-10 logarithm of concentration in M.

May I ask what pIC50 has been recorded for `LPADPASVL` ?
8.22

---

- assayed system: HLA-B*15:01
- assay notes: IEDB peptide-MHC binding, purified MHC/competitive/fluorescence; filed as Kd, often an IC50 or EC50 that approximates it; bounds were set here for any values at or beyond the usual limits of such assays
- test settings: source organism: Escherichia coli O157:H7 str. EDL933
endpoint: pKd
Note: pKd values are expressed as the negative base-10 logarithm of concentration in M.

May I ask what pKd has been recorded for `FIVEHINAM` ?
7.03

---

- assayed system: HLA-C*07:02
- assay notes: IEDB peptide-MHC binding, purified MHC/direct/fluorescence; filed as Kd, often an IC50 or EC50 that approximates it; bounds were set here for any values at or beyond the usual limits of such assays
- test settings: source organism: Variola virus
pKd: −log10 of the molar value.
endpoint: pKd

May I ask what pKd has been recorded for `SQIETGTPF` ?
≤ 4.70

---

- assayed system: HLA-B*53:01
- assay notes: IEDB peptide-MHC binding, purified MHC/competitive/fluorescence; bounds were set here for any values at or beyond the usual limits of such assays
- test settings: source organism: Human herpesvirus 4 type 2
endpoint: pIC50
Note: pIC50 values are expressed as the negative base-10 logarithm of concentration in M.

May I ask what pIC50 has been recorded for `TAYCPLQHW` ?
7.49

---

- assayed system: HLA-B*39:01
- assay notes: IEDB peptide-MHC binding, purified MHC/competitive/fluorescence; filed as Kd, often an IC50 or EC50 that approximates it; bounds were set here for any values at or beyond the usual limits of such assays
- test settings: source organism: Bacillus cereus ATCC 4342
endpoint: Kd

May I ask what Kd has been recorded for `GLFWGGIWY` ?
≥ 20 µM

---

- assayed system: HLA-A*68:01
- assay notes: IEDB peptide-MHC binding, purified MHC/competitive/radioactivity; filed as Kd, often an IC50 or EC50 that approximates it; bounds were set here for any values at or beyond the usual limits of such assays
- test settings: source organism: Mammarenavirus machupoense
pKd: −log10 of the molar value.
endpoint: pKd

May I ask what pKd has been recorded for `TMLRNSELCH` ?
≤ 4.15

---

- assayed system: HLA-A*33:01
- assay notes: IEDB peptide-MHC binding, purified MHC/competitive/radioactivity; filed as Kd, often an IC50 or EC50 that approximates it; bounds were set here for any values at or beyond the usual limits of such assays
- test settings: source organism: Vaccinia virus WR
endpoint: Kd (µM)
Give the value, in units of µM, as a plain number.

- sequence record: "AMSFDGFIR"
  assayed system: "HLA-A*33:01"
  result number: 3.15
- sequence record: "DLLNVTYNIK"
  assayed system: "HLA-A*33:01"
  result number: 1.11
- sequence record: "ESLLKETIQK"
  assayed system: "HLA-A*33:01"
  result number: 14.8
- sequence record: "GIEFADNDR"
  assayed system: "HLA-A*33:01"
  result number: 6.54

Turning to the following sequence.
May I ask what Kd has been recorded for `LLACTDPSER` ?
2.42

---

- assayed system: HLA-B*07:02
- assay notes: IEDB peptide-MHC binding, purified MHC/competitive/radioactivity; filed as Kd, often an IC50 or EC50 that approximates it; bounds were set here for any values at or beyond the usual limits of such assays
- test settings: source organism: SARS coronavirus Tor2
Reported values of pKd for individual entries
Note: pKd values are expressed as the negative base-10 logarithm of concentration in M.

Reference set, count: 2
- sequence record: "MPASWVMRIM"
  pKd: 8.07
- sequence record: "NPAWRKAVFI"
  pKd: 5.47

Turning to the following sequence.
May I ask what pKd has been recorded for `VPANSTVLSF` ?
5.77

---

- assayed system: HLA-A*02:01
- assay notes: IEDB peptide-MHC binding, purified MHC/direct/fluorescence; filed as Kd, often an IC50 or EC50 that approximates it; bounds were set here for any values at or beyond the usual limits of such assays
- test settings: source organism: Yellow fever virus
pKd: −log10 of the molar value.
endpoint: pKd

May I ask what pKd has been recorded for `PHAATIRVL` ?
≤ 4.70

---

- assayed system: HLA-C*14:02
- assay notes: IEDB peptide-MHC binding, purified MHC/direct/fluorescence; filed as Kd, often an IC50 or EC50 that approximates it; bounds were set here for any values at or beyond the usual limits of such assays
- test settings: source organism: Mycobacterium tuberculosis str. Haarlem
endpoint: Kd

- sequence record: "RYVGLYLPF"
  Kd: "≤ 0.001 µM"

Turning to the following sequence.
Any idea what Kd came out for `AAIAVGVAL` on HLA-C*14:02?
≥ 20 µM
